From: patent US10544143B2

Target: human TLR8 (Homo sapiens (Human), UniProt Q9NR97)
Sequence (Q9NR97 27-1041): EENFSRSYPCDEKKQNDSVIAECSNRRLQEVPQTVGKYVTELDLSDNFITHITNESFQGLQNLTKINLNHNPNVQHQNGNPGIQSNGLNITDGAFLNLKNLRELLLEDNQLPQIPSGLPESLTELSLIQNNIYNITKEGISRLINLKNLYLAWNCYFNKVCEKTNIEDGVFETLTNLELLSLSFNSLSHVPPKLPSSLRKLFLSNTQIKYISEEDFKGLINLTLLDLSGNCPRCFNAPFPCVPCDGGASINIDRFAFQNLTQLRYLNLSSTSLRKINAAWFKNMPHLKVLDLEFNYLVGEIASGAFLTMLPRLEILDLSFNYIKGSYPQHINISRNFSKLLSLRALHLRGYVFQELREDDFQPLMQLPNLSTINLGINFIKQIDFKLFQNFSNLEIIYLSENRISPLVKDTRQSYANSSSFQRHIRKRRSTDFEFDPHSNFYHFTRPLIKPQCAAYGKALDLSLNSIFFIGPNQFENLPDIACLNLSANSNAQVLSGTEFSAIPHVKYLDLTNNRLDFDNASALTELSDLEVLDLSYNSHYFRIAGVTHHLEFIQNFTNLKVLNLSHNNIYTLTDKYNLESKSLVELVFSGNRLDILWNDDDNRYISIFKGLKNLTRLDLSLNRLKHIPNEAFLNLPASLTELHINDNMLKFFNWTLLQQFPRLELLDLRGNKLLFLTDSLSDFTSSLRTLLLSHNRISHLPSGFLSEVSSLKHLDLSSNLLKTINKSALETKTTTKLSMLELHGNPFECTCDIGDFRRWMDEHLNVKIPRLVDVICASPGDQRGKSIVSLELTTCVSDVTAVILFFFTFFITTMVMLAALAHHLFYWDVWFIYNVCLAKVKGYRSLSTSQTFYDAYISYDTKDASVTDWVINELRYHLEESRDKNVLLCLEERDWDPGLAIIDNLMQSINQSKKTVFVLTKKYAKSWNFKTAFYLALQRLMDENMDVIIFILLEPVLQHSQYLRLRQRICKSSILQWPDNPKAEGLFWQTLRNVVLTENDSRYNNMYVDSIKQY
Experiment: TLR8 inhibition reporter assay (HEK-Blue SEAP);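 also: SEAP driven by IFN-β minimal promoter carrying NF-κB and AP-1 sites, compounds dosed 0.05 nM to 50 µM for 22 h, inhibition scaled between agonist-plus-DMSO and reference-inhibitor wells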
Conditions: read-out: TLR8 IC50; HEK-Blue human TLR8 cells, R848 15.9 μM
pIC50: −log10 of the molar value.
Readout type: pIC50

[[record]]
compound = "Cc1c(-c2[nH]c3ccc([C@H]4CC[C@@H](N5CC6(C5)CS(=O)(=O)C6)CC4)nc3c2C(C)C)cn2ncnc2c1C [Example 1053]"
readout_type = "pIC50"
reported_result = 8.32

[[record]]
compound = "Cc1c(-c2[nH]c3ccc(N4CCN[C@H](CO)C4)nc3c2C(C)C)cn2ncnc2c1C [Example 994]"
readout_type = "pIC50"
reported_result = 8.47

[[record]]
compound = "COc1cc(-c2[nH]c3ccc(N4CC5(CNC5)C4)nc3c2C(C)C)cn2ncnc12 [Example 1016]"
readout_type = "pIC50"
reported_result = 7.42

[[record]]
compound = "Cc1c(-c2[nH]c3ccc(N4C[C@@H](C)N(C(=O)CCN(C)C(C)(C)C)C[C@@H]4C)nc3c2C(C)C)cn2ncnc2c1C [Example 914]"
readout_type = "pIC50"
reported_result = 9.03

[[record]]
compound = "Cc1c(-c2[nH]c3ccc(N4CCN(C(=O)CNC5CC5)C[C@@H]4C)nc3c2C(C)C)cn2ncnc2c1C [Example 826]"
readout_type = "pIC50"
reported_result = 9.00

[[record]]
compound = "CCN(C)CC(=O)N1CCN(c2ccc3[nH]c(-c4cn5ncnc5c(C)c4C)c(C(C)C)c3n2)[C@@H](C)C1 [Example 932]"
readout_type = "pIC50"
reported_result = 8.00

[[record]]
compound = "Cc1c(-c2[nH]c3ccc(C4CCC(NC(C)(C)C)CC4)nc3c2C(C)C)cn2ncnc2c1C (stereo not shown) [Example 1054]"
readout_type = "pIC50"
reported_result = 8.77


* * *

Target: human TLR7 (Homo sapiens (Human))
Sequence (Q9NYK1 27-1049): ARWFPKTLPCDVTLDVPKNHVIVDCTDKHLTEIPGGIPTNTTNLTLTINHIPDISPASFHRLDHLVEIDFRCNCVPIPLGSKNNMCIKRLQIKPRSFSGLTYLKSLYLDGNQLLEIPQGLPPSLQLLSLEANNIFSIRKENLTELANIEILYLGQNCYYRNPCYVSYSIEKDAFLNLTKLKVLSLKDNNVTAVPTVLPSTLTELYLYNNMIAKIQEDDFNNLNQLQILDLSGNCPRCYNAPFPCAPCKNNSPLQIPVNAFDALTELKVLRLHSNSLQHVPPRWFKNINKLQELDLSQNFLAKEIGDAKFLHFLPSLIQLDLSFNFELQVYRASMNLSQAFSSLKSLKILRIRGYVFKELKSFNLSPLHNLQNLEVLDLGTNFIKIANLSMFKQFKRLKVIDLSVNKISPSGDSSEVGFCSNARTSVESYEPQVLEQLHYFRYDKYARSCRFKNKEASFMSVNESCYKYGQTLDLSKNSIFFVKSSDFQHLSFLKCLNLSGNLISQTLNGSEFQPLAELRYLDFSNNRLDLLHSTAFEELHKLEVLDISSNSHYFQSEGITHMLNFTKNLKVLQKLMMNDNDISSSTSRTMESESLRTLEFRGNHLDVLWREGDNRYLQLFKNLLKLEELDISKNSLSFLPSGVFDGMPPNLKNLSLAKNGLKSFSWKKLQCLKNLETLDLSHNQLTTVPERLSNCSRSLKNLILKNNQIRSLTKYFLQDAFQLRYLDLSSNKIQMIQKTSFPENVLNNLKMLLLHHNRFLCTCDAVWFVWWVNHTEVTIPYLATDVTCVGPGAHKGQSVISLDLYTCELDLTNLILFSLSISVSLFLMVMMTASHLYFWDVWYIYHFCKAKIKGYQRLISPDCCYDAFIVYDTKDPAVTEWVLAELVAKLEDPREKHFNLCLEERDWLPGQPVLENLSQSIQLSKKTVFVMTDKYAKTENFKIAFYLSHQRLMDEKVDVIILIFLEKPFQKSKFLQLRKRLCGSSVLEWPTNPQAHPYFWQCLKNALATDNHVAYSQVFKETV
Test: TLR7 inhibition reporter assay (HEK-Blue SEAP)
Type: cell-based
Conditions: HEK-Blue cells overexpressing human TLR7, gardiquimod 7.5 μM stimulation, SEAP reporter
pIC50: −log10 of the molar value.
Classification field: enter 1 (yes) for pIC50 values not below 8, 0 (no) for values below it.

[[record]]
molecule = "CNC1CN(c2ccc3[nH]c(-c4cn5ncnc5c(C)c4C)c(C(C)C)c3n2)C1 [Example 23]"
class = "0 (no)"

[[record]]
molecule = "Cc1c(-c2[nH]c3ccc(N4CCN(S(=O)(=O)CCN(C)C)CC4)nc3c2C(C)C)cn2ncnc2c1C"
class = "1 (yes)"

[[record]]
molecule = "CCN(C)C1CCC(c2ccc3[nH]c(-c4cn5ncnc5c(C)c4C)c(C(C)C)c3n2)CC1 (stereo not drawn) [Example 390]"
class = "1 (yes)"

[[record]]
molecule = "COCc1cc(-c2[nH]c3ccc(C4CCC(NC5COC5)CC4)nc3c2C(C)C)cn2ncnc12 (stereo not drawn) [Example 214]"
class = "1 (yes)"

[[record]]
molecule = "Cc1c(-c2[nH]c3ccc(C4CCC(N5CC(F)(F)C5)CC4)nc3c2C(C)C)cn2ncnc2c1C (stereo not drawn) [Example 374]"
class = "0 (no)"

[[record]]
molecule = "CC(C)c1c(-c2cn(C)c3ncncc23)[nH]c2ccc(C3CCC(NCCS(C)(=O)=O)CC3)nc12 (stereo not drawn)"
class = "1 (yes)"

[[record]]
molecule = "COc1cc(-c2[nH]c3cc(C)c(C4CCC(N(C)Cc5ncn(C)n5)CC4)nc3c2C(C)C)cn2ncnc12 (stereo not drawn) [Example 332]"
class = "1 (yes)"

[[record]]
molecule = "COc1cc(-c2[nH]c3cc(C)c(C4CCC(N5CC(F)(F)C5)CC4)nc3c2C(C)C)cn2ncnc12 (stereo not drawn) [Example 338]"
class = "0 (no)"

[[record]]
molecule = "CCN(C)C1CCC(c2nc3c(C(C)C)c(-c4cc(OC)c5ncnn5c4)[nH]c3cc2C)CC1 (stereo not drawn) [Example 313]"
class = "1 (yes)"

[[record]]
molecule = "Cc1cc(-c2[nH]c3ccc(C4CCC(NC5COC5)CC4)nc3c2C(C)C)cn2ncnc12 (stereo not drawn) [Example 279]"
class = "1 (yes)"

[[record]]
molecule = "Cc1c(-c2[nH]c3ccc(N4CCC(NC5CCOCC5)CC4)nc3c2C(C)C)cn2ncnc2c1C"
class = "1 (yes)"

[[record]]
molecule = "CC(C)c1c(-c2cn(CCS(C)(=O)=O)c3ncccc23)[nH]c2ccc(C3CCC(O)CC3)nc12 (stereo not drawn)"
class = "0 (no)"

